Target: Cytochrome P450 2C19 (Homo sapiens)
Test: NVS_ADME_hCYP2C19: NovaScreen (NVS) CYP450-related Enzyme Activity (ADME) Assay for human CYP2C19 (AID 2283113)
Results filed as inconclusive are left out. Activity calls are given as the source filed them. Rule for the calls: active = hit-call score of the fitted dose curve at least 0.9, where 1 is the maximum; inconclusive = response in the unintended direction; inactive = score below 0.9.
Possible outcomes: active, inactive

molecule	qualitative.label
Nc1ccc(Nc2ccccc2)cc1	active
O=C(O)c1cccc(N(Cc2cccnc2)c2ccc(OC(F)F)c(OC(F)F)c2)c1	active
Cc1ccc(N)cc1O	active
COc1ccc(-n2nc(C(F)F)cc2-c2ccc(S(C)=O)cc2)cc1 (stereo unspecified)	active
CC(C)c1cccc(C(C)C)c1N1C(=O)c2ccc(O)cc2C1=O	active
CCCCCCc1ccc(O)cc1O	active
O=P(OC(CCl)CCl)(OC(CCl)CCl)OC(CCl)CCl	active
Cc1[nH]cnc1C[C@H]1CCc2c(C)c3ccccc3n2C1=O	active
O=C(O)CC(O)C(=O)O (stereo unspecified)	active
CNS(=O)(=O)c1cc(C(=O)N2CCC(CCN3C4CCC3CC(n3c(C)nc5ccccc53)C4)(c3cccc(F)c3)CC2)c(Cl)cc1F (stereo unspecified)	active
CC(C)=CCCC(C)CCO (stereo unspecified)	inactive
